molecular target: inducible human NOS (Homo sapiens); construct: Purification of NOS cytokine-induced human colorectal adenocarcinoma DLD-1 cells; endogenous in cells; host or cells: DLD-1 (ATCC No. CCL 221), induced with IFN-gamma, IL-6, TNF and IL-1beta; assay: Assay for inducible human NOS (citrulline formation), enzyme from cytokine-induced DLD-1 cells; format: biochemical; details: isolated enzyme from DLD-1 cells; read-out: Human Inducible Ki/μM
ASSAY ENDPOINT: Ki (µM)
The reply should be a number in µM, with the unit left off.

> print(dat)
                         compound                              system  assay.endpoint  units.label  value.reported
1  CC(C)SC(=N)NCCCC[C@H](N)C(=O)O  inducible human NOS (Homo sapiens)              Ki           µM            22.6

Request: Ki, test system inducible human NOS (Homo sapiens), entry CCSC(=N)Nc1cccc(C(F)(F)F)c1
3.2

Value wanted: Ki (inducible human NOS (Homo sapiens)) of entry CCOC(=N)NCc1cccc(CN)c1
1.7

Could you share what Ki was measured for CC(C)SC(=N)NCCC[C@H](N)C(=O)O , tested on inducible human NOS (Homo sapiens)?
0.15

Please tell me: Ki of CC(C)SC(=N)NCCC[C@@H](N)C(=O)O , system inducible human NOS (Homo sapiens)?
40

Query for inducible human NOS (Homo sapiens): what Ki does the record show for CCSC(=N)Nc1ccccc1C(F)(F)F ?
22

Form: Entry = CCSC(=N)Nc1cccc(Cl)c1 | System = inducible human NOS (Homo sapiens) | Ki = ____
2.4

Quick check: Ki on inducible human NOS (Homo sapiens), item CCSC(=N)Nc1ccccc1OC ?
1.4

What measured Ki is associated with CCSC(=N)NCc1ccc(CN)cc1 [Example 14A] on inducible human NOS (Homo sapiens)?
5.3

* * *

molecular target: Human brain NOS (Homo sapiens); construct: Purification of NOS from human brain; from tissue; host or cells: frozen human brain; assay: Human brain NOS enzyme activity assay; format: biochemical; conditions: isolated enzyme from human brain
ASSAY ENDPOINT: Ki
The answer should read as a number with its unit following.

Some compounds with recorded Ki:
> print(dat)
                        compound  assay.endpoint  value.reported
1              CCSC(=N)Nc1ccncc1              Ki            1 µM
2          CCSC(=N)Nc1cccc(OC)c1              Ki         0.56 µM
3    CCSC(=N)Nc1ccc(C2CCCCC2)cc1              Ki          1.5 µM
4  CCSC(=N)Nc1ccc(OCc2ccccc2)cc1              Ki         0.21 µM
5  CC(C)SC(=N)NCCC[C@H](N)C(=O)O              Ki          0.9 µM

Form field: reported Ki of CCSC(=N)Nc1ccc(Oc2ccccc2)cc1
0.19 µM

* * *

target: human placental NOS (Homo sapiens); construct: Purification of NOS from human placenta; from tissue; host or cells: fresh human placenta; assay: Assay for human placental NOS (citrulline formation); type: biochemical; conditions: isolated enzyme from human placenta; read-out: Human Placental Ki/μM
Sequence (P29474 2-1203): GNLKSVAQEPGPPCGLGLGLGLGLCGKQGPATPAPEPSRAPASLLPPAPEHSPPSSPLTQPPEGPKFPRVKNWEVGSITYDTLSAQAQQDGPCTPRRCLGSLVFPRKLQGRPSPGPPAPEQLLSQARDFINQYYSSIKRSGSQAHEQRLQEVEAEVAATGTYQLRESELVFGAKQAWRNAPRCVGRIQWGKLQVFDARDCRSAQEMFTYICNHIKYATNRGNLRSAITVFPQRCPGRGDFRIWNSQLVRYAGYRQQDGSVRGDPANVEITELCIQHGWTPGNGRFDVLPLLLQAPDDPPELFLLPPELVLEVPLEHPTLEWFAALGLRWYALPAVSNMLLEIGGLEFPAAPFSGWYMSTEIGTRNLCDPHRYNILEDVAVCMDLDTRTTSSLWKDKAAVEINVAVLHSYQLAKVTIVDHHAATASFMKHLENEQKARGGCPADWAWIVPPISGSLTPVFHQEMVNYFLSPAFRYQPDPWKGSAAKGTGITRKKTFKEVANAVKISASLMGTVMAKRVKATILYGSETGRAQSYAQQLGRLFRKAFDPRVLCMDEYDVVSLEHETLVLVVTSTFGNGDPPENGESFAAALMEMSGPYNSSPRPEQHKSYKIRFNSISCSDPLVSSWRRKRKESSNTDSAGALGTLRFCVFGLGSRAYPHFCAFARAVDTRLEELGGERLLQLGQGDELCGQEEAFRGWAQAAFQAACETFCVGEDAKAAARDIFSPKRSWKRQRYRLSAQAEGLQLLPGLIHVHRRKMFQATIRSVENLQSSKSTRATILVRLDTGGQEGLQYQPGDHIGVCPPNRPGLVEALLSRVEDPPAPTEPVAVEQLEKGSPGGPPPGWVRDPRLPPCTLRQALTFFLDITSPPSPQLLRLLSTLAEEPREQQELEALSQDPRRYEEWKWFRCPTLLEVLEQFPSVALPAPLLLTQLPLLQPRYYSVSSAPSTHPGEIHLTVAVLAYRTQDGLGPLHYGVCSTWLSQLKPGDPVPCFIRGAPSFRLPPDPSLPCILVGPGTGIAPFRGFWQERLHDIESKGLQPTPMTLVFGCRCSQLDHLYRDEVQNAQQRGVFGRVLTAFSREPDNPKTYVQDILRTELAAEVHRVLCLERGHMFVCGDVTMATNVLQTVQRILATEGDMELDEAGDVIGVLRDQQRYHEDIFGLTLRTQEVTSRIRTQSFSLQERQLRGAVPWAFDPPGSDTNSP
// Ki lookup, one value per entry
Entry rule: numbers only, all in µM.

Sample records with Ki:
> print(dat)
                               compound                              system  units.label  value.reported
1                  CCSC(=N)Nc1ccc(C)cc1  human placental NOS (Homo sapiens)           µM               1
2  CCSC(=N)NCc1ccc(CN)cc1 [Example 14A]  human placental NOS (Homo sapiens)           µM              14
3         CCSC(=N)Nc1ccc(OCc2ccccc2)cc1  human placental NOS (Homo sapiens)           µM             2.8
4                 CCSC(=N)Nc1ccc(OC)cc1  human placental NOS (Homo sapiens)           µM             2.7
5          CSC(=N)NCc1ccc(CNC(=N)SC)cc1  human placental NOS (Homo sapiens)           µM              22

API: value(readout= Ki, system= human placental NOS (Homo sapiens), query= CCOC(=N)NCc1cccc(CN)c1 )
4.1

# returns recorded Ki (system: human placental NOS (Homo sapiens)) for CCSC(=N)Nc1ccccc1Cl
1.8

Param readout = Ki; param system = human placental NOS (Homo sapiens); param query = CCSC(=N)Nc1cccc(C(F)(F)F)c1 ; response: value
28

For the record CCSC(=N)Nc1ccc(N(C)C)cc1 , what value of Ki is listed for human placental NOS (Homo sapiens)?
9

Lab request: please report Ki under test system human placental NOS (Homo sapiens) for CCSC(=N)Nc1cccnc1
6.9

Test system human placental NOS (Homo sapiens); read-out Ki; what value for CCSC(=N)Nc1cccc(C(=O)O)c1 ?
14

Param readout= Ki; system= human placental NOS (Homo sapiens); entry= CSC(=N)NCCCC[C@H](N)C(=O)O ; returns value.
4.1

Request: Ki, test system human placental NOS (Homo sapiens), entry CSC(=N)NCc1cccc(CN)c1
3.3

Tell me reported Ki for CC(C)SC(=N)NCCC[C@H](N)C(=O)O , tested with human placental NOS (Homo sapiens).
2.1

* * *

molecular target: inducible human NOS (Homo sapiens, UniProt P35228); construct: Purification of NOS cytokine-induced human colorectal adenocarcinoma DLD-1 cells; endogenous in cells; host or cells: DLD-1 (ATCC No. CCL 221), induced with IFN-gamma, IL-6, TNF and IL-1beta; experiment: Assay for inducible human NOS (citrulline formation), enzyme from cytokine-induced DLD-1 cells; assay type: biochemical; settings: isolated enzyme from DLD-1 cells; read-out: Human Inducible Ki/μM
Sequence (P35228 whole entry): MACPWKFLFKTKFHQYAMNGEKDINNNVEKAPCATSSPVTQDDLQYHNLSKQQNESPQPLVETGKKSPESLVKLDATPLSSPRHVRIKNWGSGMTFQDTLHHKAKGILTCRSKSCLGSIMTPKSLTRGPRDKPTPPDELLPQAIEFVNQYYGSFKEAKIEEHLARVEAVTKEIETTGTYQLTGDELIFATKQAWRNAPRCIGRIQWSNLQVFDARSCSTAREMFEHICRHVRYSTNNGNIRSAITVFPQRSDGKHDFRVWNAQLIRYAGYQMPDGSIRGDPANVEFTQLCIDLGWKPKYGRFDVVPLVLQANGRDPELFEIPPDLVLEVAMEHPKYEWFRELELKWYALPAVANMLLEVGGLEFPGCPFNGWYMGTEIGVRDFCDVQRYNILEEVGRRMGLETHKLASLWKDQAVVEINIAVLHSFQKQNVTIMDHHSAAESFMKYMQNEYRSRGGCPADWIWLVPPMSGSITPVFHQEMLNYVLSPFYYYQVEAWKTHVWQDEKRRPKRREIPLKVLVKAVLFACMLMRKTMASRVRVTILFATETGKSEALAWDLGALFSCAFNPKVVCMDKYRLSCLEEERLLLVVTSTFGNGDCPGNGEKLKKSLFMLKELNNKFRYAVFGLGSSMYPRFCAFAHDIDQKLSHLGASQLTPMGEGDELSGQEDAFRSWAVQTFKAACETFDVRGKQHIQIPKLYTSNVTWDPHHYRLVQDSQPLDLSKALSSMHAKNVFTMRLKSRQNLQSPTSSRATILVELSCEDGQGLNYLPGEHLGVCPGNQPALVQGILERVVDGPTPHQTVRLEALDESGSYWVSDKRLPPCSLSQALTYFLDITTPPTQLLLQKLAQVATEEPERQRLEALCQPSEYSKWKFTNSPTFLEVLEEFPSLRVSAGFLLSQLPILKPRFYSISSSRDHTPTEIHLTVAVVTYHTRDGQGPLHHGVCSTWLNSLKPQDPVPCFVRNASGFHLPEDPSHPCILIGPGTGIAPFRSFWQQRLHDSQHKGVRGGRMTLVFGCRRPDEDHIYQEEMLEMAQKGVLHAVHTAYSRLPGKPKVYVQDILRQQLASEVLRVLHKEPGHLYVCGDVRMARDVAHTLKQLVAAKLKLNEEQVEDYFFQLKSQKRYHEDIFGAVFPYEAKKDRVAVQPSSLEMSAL
# label = MET if Ki < 3 µM else NOT MET

Strictly below 3 µM: is that where Ki of CCSC(=N)Nc1ccc(OCc2ccccc2)cc1 sits?
NOT MET

* * *

molecular target: Human brain NOS (Homo sapiens, UniProt P29475); construct: Purification of NOS from human brain; from tissue; host or cells: frozen human brain; test: Human brain NOS enzyme activity assay; assay type: biochemical; conditions: isolated enzyme from human brain
Sequence (P29475 whole entry): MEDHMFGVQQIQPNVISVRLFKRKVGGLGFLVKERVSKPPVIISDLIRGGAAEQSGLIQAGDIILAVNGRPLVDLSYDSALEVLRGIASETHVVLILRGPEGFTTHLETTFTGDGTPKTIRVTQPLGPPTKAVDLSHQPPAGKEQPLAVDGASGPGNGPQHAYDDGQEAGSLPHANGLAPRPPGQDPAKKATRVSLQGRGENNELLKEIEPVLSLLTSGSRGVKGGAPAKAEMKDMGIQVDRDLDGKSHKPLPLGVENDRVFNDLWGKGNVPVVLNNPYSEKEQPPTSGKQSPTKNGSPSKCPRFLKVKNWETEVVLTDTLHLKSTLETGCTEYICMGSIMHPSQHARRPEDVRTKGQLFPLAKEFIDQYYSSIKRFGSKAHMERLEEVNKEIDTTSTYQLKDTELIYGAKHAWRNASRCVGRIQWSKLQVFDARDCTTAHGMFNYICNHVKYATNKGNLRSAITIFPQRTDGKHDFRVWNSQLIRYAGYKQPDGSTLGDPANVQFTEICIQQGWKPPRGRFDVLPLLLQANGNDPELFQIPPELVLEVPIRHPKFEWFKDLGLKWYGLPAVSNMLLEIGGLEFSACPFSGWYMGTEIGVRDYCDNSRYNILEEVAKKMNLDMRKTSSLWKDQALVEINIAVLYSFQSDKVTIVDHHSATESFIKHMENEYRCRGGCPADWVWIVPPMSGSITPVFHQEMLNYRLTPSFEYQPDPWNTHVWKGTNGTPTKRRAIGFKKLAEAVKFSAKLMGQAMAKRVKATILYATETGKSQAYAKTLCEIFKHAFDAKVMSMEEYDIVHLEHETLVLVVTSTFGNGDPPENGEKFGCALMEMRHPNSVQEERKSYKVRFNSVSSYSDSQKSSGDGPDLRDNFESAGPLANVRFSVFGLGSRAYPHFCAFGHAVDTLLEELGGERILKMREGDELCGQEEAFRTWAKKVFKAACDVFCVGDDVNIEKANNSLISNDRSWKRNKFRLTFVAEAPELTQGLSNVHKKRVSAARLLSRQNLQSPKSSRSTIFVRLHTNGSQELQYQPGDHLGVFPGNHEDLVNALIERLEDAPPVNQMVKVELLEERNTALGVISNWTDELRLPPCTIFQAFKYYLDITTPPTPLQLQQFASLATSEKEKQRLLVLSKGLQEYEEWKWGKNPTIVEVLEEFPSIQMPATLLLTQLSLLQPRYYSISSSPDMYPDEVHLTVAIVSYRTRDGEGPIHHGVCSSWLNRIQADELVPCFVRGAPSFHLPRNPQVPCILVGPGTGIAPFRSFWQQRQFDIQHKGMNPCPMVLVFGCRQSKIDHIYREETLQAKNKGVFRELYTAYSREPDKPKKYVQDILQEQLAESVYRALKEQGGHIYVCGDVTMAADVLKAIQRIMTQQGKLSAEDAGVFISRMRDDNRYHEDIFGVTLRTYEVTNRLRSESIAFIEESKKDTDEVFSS
We label by threshold. Values of Ki strictly beneath 1 µM are rule met. Values of 1 µM and up are rule not met.

Below, 8 molecules whose answers are already recorded.
> print(dat)
                                   molecule   group.label
1  CCSC(=N)Nc1ccccn1 [Example 1K, S-ethyl-N-(2-pyridyl)isothiourea]  rule not met
2  CSC(=N)NCc1ccc(CNC(=N)SC)cc1 [Example 7]  rule not met
3  CC(C)SC(=N)NCCCC[C@H](N)C(=O)O [Example 9D]  rule not met
4  CCSC(=N)Nc1cccc(C(F)(F)F)c1 [Example 2E]  rule not met
5      CCSC(=N)NCc1cccc(CN)c1 [Example 13A]      rule met
6  CCSC(=N)Nc1ccc(Cl)c(C(F)(F)F)c1 [Example 2K]  rule not met
7  CCSC(=N)Nc1ccccc1C(C)C [Example 2C, S-Ethyl-N-(2-isopropylphenyl)isothiourea]  rule not met
8  CCSC(=N)Nc1ccccc1OC [Example 2H, S-Ethyl-N-(2-methoxyphenyl)isothiourea]      rule met

Here is the next item to consider.
Record CCSC(=N)Nc1ccc(OC)cc1 [Example 1J, S-ethyl-N-(4-methoxyphenyl)isothiourea] : is its Ki strictly below 1 µM?
rule met

* * *

molecular target: human placental NOS (Homo sapiens); construct: Purification of NOS from human placenta; from tissue; host or cells: fresh human placenta; experiment: Assay for human placental NOS (citrulline formation); format: biochemical; conditions: concentration not given
# Lookup of reported Human Placental, percent (inhibition), concentration not given keyed by entry
Respond with the bare value in %.

Some compounds with known Human Placental, percent (inhibition), concentration not given results, for comparison:
> print(dat)
                smiles.structure  value.reported
1     COC(=N)Nc1ccc(C(F)(F)F)cc1              14
2  CCSC(=N)Nc1cc(C(F)(F)F)ccc1Cl               6

Human Placental, percent (inhibition), concentration not given for N=C(Nc1ccc(C(F)(F)F)cc1)SCc1ccccc1 ?
0

Request the reported Human Placental, percent (inhibition), concentration not given associated with CCOC(=N)Nc1ccc(C(F)(F)F)cc1
35

* * *

Listed here: items and their measured Ki.
molecular target: human placental NOS (Homo sapiens); construct: Purification of NOS from human placenta; from tissue; host or cells: fresh human placenta; assay: Assay for human placental NOS (citrulline formation); assay type: biochemical; conditions: isolated enzyme from human placenta; read-out: Human Placental Ki/μM
Number in µM, nothing else.

Solved entries (count: 8):
> print(dat)
                                   compound  assay.endpoint  value.reported
1  CCOC(=O)c1ccc(NC(=N)SCC)cc1 [Example 1C]              Ki              12
2  N[C@@H](CCCCNC1=NCCS1)C(=O)O [Example 5A, N^6-(2-thiazolin-2-yl)-L-lysine]              Ki              21
3  CCSC(=N)Nc1cccc(OC)c1 [Example 1A, S-ethyl-N-(3-methoxyphenyl)isothiourea]              Ki             3.1
4  CCSC(=N)Nc1ccc(Oc2ccccc2)cc1 [Example 1, S-Ethyl-N-(4-phenoxyphenyl)isothiourea]              Ki               4
5  CCSC(=N)Nc1cccc(Cl)c1 [Example 2B, S-Ethyl-N-(3-chlorophenyl)isothiourea]              Ki             1.8
6  CCSC(=N)Nc1ccncc1 [Example 2M, S-Ethyl-N-(4-pyridyl)isothiourea]              Ki             6.9
7  CC(C)CSC(=N)NCCC[C@H](N)C(=O)O [Example 9E]              Ki              14
8  CSC(=N)NCc1cccc(CNC(=N)SC)c1 [Example 6]              Ki              17

Now, please, on to the next compound.
Find the recorded Ki belonging to CC(C)SC(=N)NCCC[C@@H](N)C(=O)O [Example 9K] and report it.
30
